system: Tau phosphorylation at Ser396 (pSer396) in SH-SY5Y cells; assay: Tau phosphorylation at Ser396 (pSer396) cell assay, ELISA/western blot; format: cell-based, human; details: Homo sapiens; SH-SY5Y cells, overnight (16-18 h); read-out: pSer396 Tau EC50
PROPERTY_MEASURED: pEC50
Give bare numbers, as −log10 of the molar value.

A selection of reference data follows.
| COMPOUND_STRUCTURE_STRING | SYSTEM_NAME | pEC50 |
| --- | --- | --- |
| O=C(Nc1cc2cc(-c3cncc(F)c3)ccc2cn1)[C@H]1C[C@H](N2CCOCC2)C1 | Tau phosphorylation at Ser396 (pSer396) in SH-SY5Y cells | 5.59 |
| O=C(CN1CCCC1)Nc1cc2cc(-c3cccnc3)ccc2cn1 | Tau phosphorylation at Ser396 (pSer396) in SH-SY5Y cells | 5.66 |
| [2H]c1nc([2H])c(-c2ccc3cnc(NC(=O)CN4CCCC4)cc3c2)c([2H])c1[2H] | Tau phosphorylation at Ser396 (pSer396) in SH-SY5Y cells | 5.72 |

State its pEC50: CN1CCC(C(=O)Nc2cc3cc(-c4cncc(CO)c4)ccc3cn2)CC1 5.04

###

biological target: recombinant GSK3β kinase (Homo sapiens (Human), UniProt P49841); test: GSK3β kinase assay (Ser/Thr 09 peptide Z-lyte, FRET); assay type: biochemical; conditions: GSK3β kinase; head says EC50, method says IC50; ATP 46 μM;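 further: FRET read-out as coumarin over fluorescein emission ratio, compounds incubated one hour at room temperature, IC50 from dose-response curve fit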
Sequence (P49841 whole entry): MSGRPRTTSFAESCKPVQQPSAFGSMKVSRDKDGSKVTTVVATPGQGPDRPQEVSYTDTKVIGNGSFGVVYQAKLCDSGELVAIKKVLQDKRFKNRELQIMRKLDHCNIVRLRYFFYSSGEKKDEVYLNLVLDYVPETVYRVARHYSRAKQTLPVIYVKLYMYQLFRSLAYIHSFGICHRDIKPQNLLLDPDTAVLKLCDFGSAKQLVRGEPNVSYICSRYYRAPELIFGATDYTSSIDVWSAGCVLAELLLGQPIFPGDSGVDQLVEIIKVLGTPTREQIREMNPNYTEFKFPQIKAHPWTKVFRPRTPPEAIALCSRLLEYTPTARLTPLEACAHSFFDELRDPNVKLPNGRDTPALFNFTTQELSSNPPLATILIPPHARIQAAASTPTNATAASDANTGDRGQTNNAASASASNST
Please go through the items and note down their pEC50.
Answers are plain numbers, as −log10 of the molar value.

| COMPOUND | pEC50 |
| --- | --- |
| Cc1cncc(-c2ccc3cnc(NC(=O)CN4CCOCC4)cc3c2)c1 [Compound 146] | 6.21 |

Parameters: items (list). Returns: pEC50 for each item.
1. CC(C)Nc1cncc(-c2ccc3cnc(NC(=O)C4CCNCC4)cc3c2)n1 [Compound 87]
2. O=C(Cn1ccnc1)Nc1cc2cc(-c3cccnc3)ccc2cn1 [Compound 15]
3. O=C(Nc1cc2cc(-c3cncc(F)c3)ccc2cn1)[C@H]1C[C@H](N2CCOCC2)C1 [Compound 16]
4. O=C(CN1CCOCC1)Nc1cc2cc(-c3cccnc3)ccc2cn1 [Compound 10]
5. CN1CCC(C(=O)Nc2cc3cc(-c4cccnc4)ccc3cn2)CC1 [Compound 8]
6. CN1CCC(Nc2cncc(-c3ccc4cnc(NC(=O)C5CCCC5)cc4c3)n2)CC1 [Compound 114]

7.42
7.01
6.59
6.28
6.19
7.32

Quick request: pEC50 for each listed item, please.
1. Cc1nccn1CC(=O)Nc1cc2cc(-c3cccnc3)ccc2cn1 [Compound 14]
2. COc1cncc(-c2ccc3cnc(NC(=O)CN4CCOCC4)cc3c2)c1 [Compound 147]
3. O=C(Nc1cc2cc(-c3cncc(N[C@H]4CCNC[C@@H]4F)n3)ccc2cn1)c1ccc(F)cc1 [Compound 112]
4. CC(C)Nc1cncc(-c2ccc3cnc(NC(=O)C4CCN(CCF)CC4)cc3c2)n1 [Compound 89]
5. O=C(Nc1cc2cc(-c3cncc(CN4CCCC4)c3)ccc2cn1)C1CC1 [Compound 51]
6. O=C(Nc1cc2cc(-c3cncc(NCC4(F)CNC4)n3)ccc2cn1)c1ccc(F)cc1 [Compound 104]
7. CNC(=O)c1cncc(-c2ccc3cnc(NC(=O)C4CCN(C)CC4)cc3c2)c1 [Compound 58]
8. O=C(Nc1cc2cc(-c3cnccn3)ccc2cn1)C1CCN(CCF)CC1 [Compound 77]

[6.95, 5.99, 5.74, 7.85, 6.76, 5.36, 5.71, 5.97]

Provide each entry's pEC50 from the list below.
1. CN1CCN(c2cc(C(=O)Nc3cc4cc(-c5cncc(NC(C)(C)C)n5)ccc4cn3)ccn2)CC1 [Compound 100]
2. O=C(Nc1cc2cc(-c3cncc(NC4CCNCC4)n3)ccc2cn1)C1CCCC1 [Compound 107]
3. O=C(CN1CCCC1)Nc1cc2cc(-c3cccnc3)ccc2cn1 [Compound 7]

1. 5.29
2. 7.51
3. 6.61

For every item in the list below, what is its measured pEC50?
1. CN1CCN(CC(=O)Nc2cc3cc(-c4cccnc4)c(F)cc3cn2)CC1 [Compound 145]
2. CN1CC=C(c2cc(C(=O)Nc3cc4cc(-c5cncc(NC(C)(C)C)n5)ccc4cn3)ccn2)CC1 [Compound 99]
3. COc1cncc(-c2ccc3cnc(NC(=O)C4CCN(C)CC4)cc3c2)c1 [Compound 33]
4. O=C(Nc1cc2cc(-c3cncc(OC4CCNCC4)c3)ccc2cn1)C1CC1 [Compound 55]

1. 5.54
2. 6.13
3. 6.02
4. 5.99
